Target Of Assay: T1, canine OSMR on canine cells (canine, UniProt A0A8I3MI11 28-967)
T1 sequence: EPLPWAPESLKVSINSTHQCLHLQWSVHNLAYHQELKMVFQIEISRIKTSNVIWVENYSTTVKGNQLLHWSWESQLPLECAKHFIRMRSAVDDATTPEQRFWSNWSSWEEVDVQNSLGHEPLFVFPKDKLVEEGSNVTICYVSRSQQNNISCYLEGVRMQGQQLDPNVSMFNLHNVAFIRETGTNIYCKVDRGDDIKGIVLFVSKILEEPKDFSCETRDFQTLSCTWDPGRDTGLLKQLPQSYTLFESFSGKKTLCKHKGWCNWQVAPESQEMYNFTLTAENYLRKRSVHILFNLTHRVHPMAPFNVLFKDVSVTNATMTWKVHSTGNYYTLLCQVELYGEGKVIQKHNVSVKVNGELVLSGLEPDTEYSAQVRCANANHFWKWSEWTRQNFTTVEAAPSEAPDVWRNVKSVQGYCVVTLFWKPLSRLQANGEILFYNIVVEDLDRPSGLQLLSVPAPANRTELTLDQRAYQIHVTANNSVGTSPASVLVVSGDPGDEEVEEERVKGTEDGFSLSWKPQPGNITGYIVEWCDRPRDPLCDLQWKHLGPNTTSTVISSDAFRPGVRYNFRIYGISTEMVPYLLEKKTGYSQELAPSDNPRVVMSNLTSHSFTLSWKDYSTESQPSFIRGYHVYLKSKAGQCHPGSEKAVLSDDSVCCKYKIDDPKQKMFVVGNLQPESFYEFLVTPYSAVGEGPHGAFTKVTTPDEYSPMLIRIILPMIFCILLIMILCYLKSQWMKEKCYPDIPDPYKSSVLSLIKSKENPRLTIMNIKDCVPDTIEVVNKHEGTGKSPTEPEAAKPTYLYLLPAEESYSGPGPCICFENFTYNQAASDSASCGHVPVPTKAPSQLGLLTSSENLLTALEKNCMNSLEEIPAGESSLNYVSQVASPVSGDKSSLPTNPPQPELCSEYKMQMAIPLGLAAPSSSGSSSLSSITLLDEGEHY
Method Description: cell-based or functional assay
Reported Property: IC50, inhibition of canine IL-31 pSTAT3 signaling, canine DH82 cells (µg/ml)
I only need the number, in µg/ml, no unit after it.

Form field: reported IC50, inhibition of canine IL-31 pSTAT3 signaling, canine DH82 cells of mouse: canine 02D09 chimera (antibody, V domains shown, Mouse variable domains on canine IgG constant regions; also called 02D09 (Mouse:Canine); chimeric 02D09) VH: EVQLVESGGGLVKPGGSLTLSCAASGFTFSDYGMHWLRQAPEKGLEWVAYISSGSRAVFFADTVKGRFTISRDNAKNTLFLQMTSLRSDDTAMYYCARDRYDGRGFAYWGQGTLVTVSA VL: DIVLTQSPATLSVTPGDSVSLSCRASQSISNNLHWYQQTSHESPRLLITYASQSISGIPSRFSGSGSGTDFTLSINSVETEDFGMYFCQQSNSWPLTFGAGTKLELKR
97.7

Entry mouse: canine 09E09 chimera (antibody, V domains shown, Mouse variable domains on canine IgG constant regions; also called 09E09 (Mouse:Canine); mouse:dog chimera 09E09) VH: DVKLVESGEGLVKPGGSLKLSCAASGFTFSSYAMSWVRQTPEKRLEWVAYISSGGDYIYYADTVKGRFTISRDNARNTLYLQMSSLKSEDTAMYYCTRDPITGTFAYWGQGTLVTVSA VL: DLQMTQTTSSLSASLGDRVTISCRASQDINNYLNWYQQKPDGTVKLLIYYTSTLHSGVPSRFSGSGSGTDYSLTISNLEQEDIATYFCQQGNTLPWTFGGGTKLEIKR : reported IC50, inhibition of canine IL-31 pSTAT3 signaling, canine DH82 cells = ?
31.3

Entry mouse: canine 19F07 chimera (antibody, V domains shown, Mouse variable domains on canine IgG constant regions; also called 19F07 (Mouse:Canine); mouse:dog chimera 19F07) VH: EVKLVESEGGLVQPGSSMKLSCTASGFTFSDYYMAWVRQVPEKGLEWVANINYDGSSTYYLDSLKSRFIISRDNAKNILYLQMSSLKSEDTATYYCARGLTWDFDVWGTGTTVTVSS VL: DIVMTQSHKFMSPSVGDRVSITCKASQDVDTAVAWYQQKPGQSPKLLIYLASTRHTGVPDRFTGSGSGTDFTLTISNVQSEDLADYFCQQYSRFPLTFGAGTKLELKR : reported IC50, inhibition of canine IL-31 pSTAT3 signaling, canine DH82 cells = ?
0.28
